Target: T1, EsCas13d, nuclease-dead (Eubacterium siraeum, UniProt B0MS50, R295A;H300A;R849A;H854A)
T1 sequence: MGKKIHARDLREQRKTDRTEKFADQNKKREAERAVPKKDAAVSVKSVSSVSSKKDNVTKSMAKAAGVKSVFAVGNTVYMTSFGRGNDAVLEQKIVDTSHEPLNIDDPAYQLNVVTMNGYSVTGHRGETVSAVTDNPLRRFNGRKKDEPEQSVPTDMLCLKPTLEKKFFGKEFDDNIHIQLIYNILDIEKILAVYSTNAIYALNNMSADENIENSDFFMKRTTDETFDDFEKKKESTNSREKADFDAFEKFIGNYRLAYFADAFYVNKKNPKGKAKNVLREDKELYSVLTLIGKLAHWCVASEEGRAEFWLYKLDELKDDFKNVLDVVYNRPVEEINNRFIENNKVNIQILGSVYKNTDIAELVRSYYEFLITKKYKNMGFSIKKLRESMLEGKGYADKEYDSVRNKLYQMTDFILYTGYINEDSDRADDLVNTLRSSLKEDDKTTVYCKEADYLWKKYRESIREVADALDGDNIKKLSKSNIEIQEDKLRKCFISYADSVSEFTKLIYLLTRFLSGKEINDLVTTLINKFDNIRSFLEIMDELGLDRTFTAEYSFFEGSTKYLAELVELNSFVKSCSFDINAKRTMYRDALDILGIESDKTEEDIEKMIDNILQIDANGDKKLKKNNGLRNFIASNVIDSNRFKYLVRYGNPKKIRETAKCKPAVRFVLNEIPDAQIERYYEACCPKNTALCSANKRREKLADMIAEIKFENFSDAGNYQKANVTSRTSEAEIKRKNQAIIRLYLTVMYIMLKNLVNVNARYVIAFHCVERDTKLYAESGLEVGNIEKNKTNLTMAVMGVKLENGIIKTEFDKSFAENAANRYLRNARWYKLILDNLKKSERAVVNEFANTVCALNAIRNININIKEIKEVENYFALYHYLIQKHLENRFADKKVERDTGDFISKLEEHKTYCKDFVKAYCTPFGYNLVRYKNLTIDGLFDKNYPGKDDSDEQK
Assay: crRNA (strand 1, pre-loaded); Mg2+; 40 mM Tris-HCl pH 7.5, 150 mM NaCl, 6 mM MgCl2, 1 mM DTT, 0.1% Tween-20, 0.2 mg/ml BSA; 25 C; 10 min per concentration, then washed
Conditions: tags: His6-TwinStrep-SUMO cleaved; N-terminal SNAP kept (SNAP-Surface 488); label: 3' end held by stalled T7 RNA polymerase
Provide the reported pKd of each item.
Entry type: numeric. Quantity: pKd, the -log10 of concentration in molar units.

Query (binder): target 1 MT 5'PFS GCU 3'PFS CGA (mixed) RNA 1: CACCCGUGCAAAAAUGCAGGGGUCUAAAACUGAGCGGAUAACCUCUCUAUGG RNA 2: GGGAAUGGAUCCACAUCUACGAAUUCGCUCCAUAGAGAGGUUAUCCGCUCACGAAGAUCGGAAGAGCACACGU ; field requested: pKd
7.31

And what about the binder target 2 MT 5'PFS ACC 3'PFS ACC (mixed) RNA 1: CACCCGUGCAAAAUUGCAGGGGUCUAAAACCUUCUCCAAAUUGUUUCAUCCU RNA 2: GGGAAUGGAUCCACAUCUACGAAUUCACCAGGAUGAAACAAUUUGGAGAAGACCAGAUCGGAAGAGCACACGU ?
7.99

And what about the binder target 1 C6G,G15A (mixed) RNA 1: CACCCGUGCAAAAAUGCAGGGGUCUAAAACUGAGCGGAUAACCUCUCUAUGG RNA 2: GGGAAUGGAUCCACAUCUACGAAUUCGUACCAUAGAAAGGUUAUCGGCUCACCGAGAUCGGAAGAGCACACGU ?
7.84

And what about the binder target 1 insA 3' of 22,insU 3' of 13 (mixed) RNA 1: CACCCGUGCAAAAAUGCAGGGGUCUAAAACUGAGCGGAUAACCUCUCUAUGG RNA 2: GGGAAUGGAUCCACAUCUACGAAUUCGUACACAUAGAGAGUGUUAUCCGCUCACCGAGAUCGGAAGAGCACACGU ?
7.69

And what about the binder target 1 insC 3' of 16,insG 3' of 8 (mixed) RNA 1: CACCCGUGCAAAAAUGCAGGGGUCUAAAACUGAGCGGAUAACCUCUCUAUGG RNA 2: GGGAAUGGAUCCACAUCUACGAAUUCGUACCAUAGACGAGGUUAUGCCGCUCACCGAGAUCGGAAGAGCACACGU ?
7.25

And what about the binder target 1 insG 3' of 11,insC 3' of 11 (mixed) RNA 1: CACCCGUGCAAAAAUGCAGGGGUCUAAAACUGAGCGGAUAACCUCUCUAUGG RNA 2: GGGAAUGGAUCCACAUCUACGAAUUCGUACCAUAGAGAGGUGCUAUCCGCUCACCGAGAUCGGAAGAGCACACGU ?
7.74

And what about the binder target 1 C6G,A14U (mixed) RNA 1: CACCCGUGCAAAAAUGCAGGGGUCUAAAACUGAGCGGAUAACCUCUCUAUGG RNA 2: GGGAAUGGAUCCACAUCUACGAAUUCGUACCAUAGAGUGGUUAUCGGCUCACCGAGAUCGGAAGAGCACACGU ?
7.39

And what about the binder target 1 MT 5'PFS AAG 3'PFS ACG (mixed) RNA 1: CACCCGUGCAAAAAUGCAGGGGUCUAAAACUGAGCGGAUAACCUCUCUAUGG RNA 2: GGGAAUGGAUCCACAUCUACGAAUUCAAGCCAUAGAGAGGUUAUCCGCUCAACGAGAUCGGAAGAGCACACGU ?
7.81
